Entries annotated with measured interaction score
Molecular target: T1, O16-bN
T1 chain: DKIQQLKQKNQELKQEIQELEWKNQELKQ
Assay: two-hybrid library CCNG1;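 further: natural log of median RNA to DNA barcode read ratio; higher means stronger binding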
Lab note: record just the number, no unit beside it.

Reference set (5 entries):
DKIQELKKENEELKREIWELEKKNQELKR [4H2760-bH] ... 0.693
DKNQELEKKIEELERKIWELEKENQELKR [4H3364-bH] ... 0.622
DEIQQLEQENQELEQKIQELKWENQELEQ [O15-bN] ... 1.92
DEIQQLEQKIQELKQKNQELKWKNQELKQ [O12-bN] ... -0.487
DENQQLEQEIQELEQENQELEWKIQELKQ [O14-bN] ... 1.69

Field interaction score (entry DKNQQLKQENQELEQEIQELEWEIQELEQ [O1-bN] ) reads -1.9

// field: interaction score; key: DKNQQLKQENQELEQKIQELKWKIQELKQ [O10-bN] ; value = -0.104

get_value(item= DEIAQLEQKNAELKQKIAELKWENAQLEQ [4H491-bA] , readout=interaction score) returns 0.749

# interaction score of DKNQQLKQKIQELKQKNQELKWEIQELEQ [O13-bN] = -1.23

The value of interaction score measured for the binder DKIQQLKQKNQELKQEIQELEWKNQELKQ [O16-bN] turned out to be 0.145

Briefly, interaction score measured for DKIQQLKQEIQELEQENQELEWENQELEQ [O11-bN] : -1.91

Where do the numbers come from? From paper PMC10397247.
